IC50 values for Xanthine dehydrogenase/oxidase (Bos taurus) compiled from several publications are listed below.
measured_metric: IC50 (µM)

molecule: COC(=O)C1=COC(OC(=O)Nc2ccc(OC)cc2)[C@@H]2C(COC(=O)Nc3ccc(OC)cc3)=CC[C@H]12 (stereo partly drawn)
observed_value: 12.8

molecule: COC(=O)C1=C(C)Oc2ccc3ccccc3c2C1c1sccc1C (stereo not drawn)
observed_value: 7.31

molecule: CC(=O)NC(CC(=O)c1ccc2ccccc2c1)c1ccccc1 (stereo not drawn)
observed_value: 8.5

====

System: Xanthine dehydrogenase/oxidase (Bos taurus, UniProt P80457) | Read-out: log10 of IC50 | Origin: multiple publications
Sequence (P80457 whole entry): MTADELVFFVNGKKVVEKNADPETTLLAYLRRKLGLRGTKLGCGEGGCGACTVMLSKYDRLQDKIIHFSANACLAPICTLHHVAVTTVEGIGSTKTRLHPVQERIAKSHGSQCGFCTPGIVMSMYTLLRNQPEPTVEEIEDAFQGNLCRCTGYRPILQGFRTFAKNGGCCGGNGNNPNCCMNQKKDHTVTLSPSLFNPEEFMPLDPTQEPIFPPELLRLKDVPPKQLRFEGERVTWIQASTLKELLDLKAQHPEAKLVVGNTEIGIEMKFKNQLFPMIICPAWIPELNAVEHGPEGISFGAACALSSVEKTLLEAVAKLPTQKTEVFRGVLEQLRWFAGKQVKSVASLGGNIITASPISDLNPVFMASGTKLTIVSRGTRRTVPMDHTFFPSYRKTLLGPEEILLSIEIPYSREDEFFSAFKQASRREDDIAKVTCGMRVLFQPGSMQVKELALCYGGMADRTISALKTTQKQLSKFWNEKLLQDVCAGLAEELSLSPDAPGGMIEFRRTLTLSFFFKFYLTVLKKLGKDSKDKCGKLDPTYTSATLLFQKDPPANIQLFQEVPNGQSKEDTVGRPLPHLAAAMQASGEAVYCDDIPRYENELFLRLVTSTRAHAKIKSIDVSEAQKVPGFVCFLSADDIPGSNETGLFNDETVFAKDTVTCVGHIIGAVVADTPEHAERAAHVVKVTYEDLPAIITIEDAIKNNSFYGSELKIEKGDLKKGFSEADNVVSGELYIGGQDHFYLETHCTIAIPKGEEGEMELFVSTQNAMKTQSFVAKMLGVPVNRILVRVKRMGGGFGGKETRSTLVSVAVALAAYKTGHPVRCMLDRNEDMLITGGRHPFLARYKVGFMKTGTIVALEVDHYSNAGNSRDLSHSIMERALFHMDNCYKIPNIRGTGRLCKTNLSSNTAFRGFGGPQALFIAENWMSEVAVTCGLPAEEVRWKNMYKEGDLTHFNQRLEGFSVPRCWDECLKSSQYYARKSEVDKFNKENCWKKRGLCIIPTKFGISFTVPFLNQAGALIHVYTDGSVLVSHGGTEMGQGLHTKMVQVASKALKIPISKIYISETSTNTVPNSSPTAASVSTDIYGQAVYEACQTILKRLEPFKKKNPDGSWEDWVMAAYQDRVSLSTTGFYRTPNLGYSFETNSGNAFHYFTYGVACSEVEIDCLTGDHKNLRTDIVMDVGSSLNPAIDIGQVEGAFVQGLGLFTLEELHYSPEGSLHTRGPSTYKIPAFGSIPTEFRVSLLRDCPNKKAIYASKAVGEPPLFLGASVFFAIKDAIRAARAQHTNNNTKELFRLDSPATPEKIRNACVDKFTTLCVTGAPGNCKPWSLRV
measured_metric: log10 of IC50 (log10 of the value in nM)

molecule: CCOC(=O)c1cc(-c2nc(-c3ccnc(C)c3)n[nH]2)ccc1OCC(C)C
observed_value: 1.30
//
molecule: N#Cc1cn(Cc2cccc(F)c2)c2ccc(-c3noc(=O)[nH]3)cc12
observed_value: 3.56
//
molecule: COc1ccccc1Cn1cc(COc2ccc(F)cc2C=O)nn1
observed_value: 2.97
//
molecule: COC(=O)C1=COC(OC(=O)NC2CCCCC2)[C@@H]2C(COC(=O)NC3CCCCC3)=CC[C@H]12 (some centres undefined)
observed_value: 5.45
//
molecule: N#Cc1cc(-c2n[nH]c(-c3ccncc3)n2)ccn1
observed_value: 0.72
//
molecule: N#Cc1cc(-n2cnc(C(=O)O)c2)ccc1OC1CCCCC1
observed_value: 1.68
//
molecule: N#Cc1cn(Cc2ccc(F)cc2)c2ccc(-c3noc(=O)[nH]3)cc12
observed_value: 3.23
//
molecule: CCCC(=O)OCC1=CC[C@@H]2C(C(=O)O)=CO[C@@H](O[C@@H]3O[C@H](COC(=O)CCC)[C@@H](OC(=O)CCC)[C@H](OC(=O)CCC)[C@H]3OC(=O)CCC)[C@H]12
observed_value: 4.75
//
molecule: CCCCCn1cc(COc2ccccc2C=O)nn1
observed_value: 4.26
//
molecule: N#Cc1ccccc1COc1ccc(NC(=O)c2ccncc2)cc1C#N
observed_value: 2.49
//
molecule: COCOc1ccc(-c2nc(-c3ccnc(C)c3)n[nH]2)cc1C#N
observed_value: 1.38
//
molecule: CCOC(=O)C1=C(C)Oc2ccc3ccccc3c2C1c1ccco1 (centres undefined)
observed_value: 4.12
//
molecule: Cn1c2ccccc2c2cc(/C=C/C(=O)c3cccc(NC(=O)c4ccccc4F)c3)ccc21
observed_value: 4.90
//
molecule: N#Cc1cc(-n2cnc(C(=O)O)c2)ccc1N1CCCCCCC1
observed_value: 0.90

====

We begin with pIC50 values for Xanthine dehydrogenase/oxidase (Bos taurus, UniProt P80457), as collected from the published literature.
pIC50: −log10 of the molar value.

molecule: CC(C)CCOc1ccc(-c2nccc(O)n2)cc1C#N
relation_symbol: =
pIC50: 7.34

molecule: COc1ccc(NC(=O)/C=C/c2ccc(O)c3oc(-c4ccc(O)c(O)c4)cc23)cc1
relation_symbol: =
pIC50: 4.37

molecule: O=C(CC(NC(=O)c1ccccc1)c1cccc([N+](=O)[O-])c1)c1ccccc1 (stereo unspecified)
relation_symbol: =
pIC50: 4.36

molecule: COc1cc(-c2oc3cc(O)c(OC)c(O)c3c(=O)c2OC)cc(O)c1OC
relation_symbol: =
pIC50: 5.16

molecule: COc1c(-c2ccc(O[C@@H]3O[C@H](CO)[C@@H](O)[C@H](O)[C@H]3O)c(O)c2)oc2cc(O)cc(O)c2c1=O
relation_symbol: =
pIC50: 4.45

molecule: CCC(C)n1cc(COc2ccccc2C=O)nn1 (stereo unspecified)
relation_symbol: =
pIC50: 4.66

molecule: CCOC(=O)/C=C/c1ccc(O)c2oc(-c3ccc(O)c(O)c3)cc12
relation_symbol: =
pIC50: 4.81

molecule: O=c1cc(-c2ccccc2)oc2c1ccc1ccccc12
relation_symbol: <
pIC50: 4.70

molecule: Cc1nc(-c2ccc(OC(C)C)c(C#N)c2)n(O)c1C(=O)O
relation_symbol: =
pIC50: 6.77

molecule: CC(C)CCOc1ccc(-c2nc(-c3cccnc3)cn2O)cc1C#N
relation_symbol: =
pIC50: 5.17

molecule: C=C1CC[C@]2(C(=O)O[C@@H]3O[C@H](CO[C@@H]4O[C@H](CO)[C@@H](O)[C@H](O)[C@H]4O)[C@@H](O)[C@H](O)[C@H]3O)CC[C@]3(C)C(=CC[C@@H]4[C@@]5(C)CC[C@H](O[C@@H]6OC[C@H](O)[C@H](O[C@@H]7OC[C@H](O)[C@H](O)[C@H]7O)[C@H]6O)C(C)(C)[C@@H]5CC[C@]43C)[C@@H]2C1
relation_symbol: <
pIC50: 4.00
